# Tested on: HEK293
# assay_text: Effect on forskolin-stimulated cAMP level in HEK293 cells at 1 uM by BRET assay relative to control
# Assay type: ADME, cell-based
# run_conditions: human, hek293, 1 µM
Assign Activity to each entry below.
Reply numerically in %, unit not repeated.

Prompt: Item O=C(c1cn(CCN2CCOCC2)c2ccc(O)cc12)C1CCCCC1 has what recorded Activity?
Completion: 105.9

Prompt: Item COC(=O)CCCCOc1cccc2c(C(=O)c3ccc(OC)cc3)cn(CC3CCOCC3)c12 has what recorded Activity?
Completion: 124.3

Prompt: Item COc1ccc(C(=O)c2cn(CC3CCOCC3)c3c(OCCCCCCNC(C)=O)cccc23)cc1 has what recorded Activity?
Completion: 114.8

Prompt: Item O=C(c1cccc2ccccc12)c1cn(CC2CCOCC2)c2ccc(O)cc12 has what recorded Activity?
Completion: 95

Prompt: Item Cc1c(C(=O)c2cccc3ccccc23)c2cccc3c2n1[C@H](CN1CCOCC1)CO3 has what recorded Activity?
Completion: 96.1

Prompt: Item COc1ccc(C(=O)c2cn(CC3CCOCC3)c3ccc(OCC(=O)O)cc23)cc1 has what recorded Activity?
Completion: 98.8

Prompt: Item CCCCCCC(C)(C)c1ccc([C@@H]2C[C@H](O)CC[C@H]2CCCO)c(O)c1 has what recorded Activity?
Completion: 99.2

Prompt: Item COc1ccc(C(=O)c2cn(CC3CCOCC3)c3c(OCC(=O)O)cccc23)cc1 has what recorded Activity?
Completion: 104.5

Prompt: Item COc1ccc(C(=O)c2cn(CC3CCOCC3)c3ccc(O)cc23)cc1 has what recorded Activity?
Completion: 105.5

Prompt: Item O=C(c1cccc2ccccc12)c1cn(CCN2CCOCC2)c2ccc(O)cc12 has what recorded Activity?
Completion: 101.9

Prompt: Item COc1ccc(C(=O)c2cn(CC3CCOCC3)c3c(O)cccc23)cc1 has what recorded Activity?
Completion: 104.3

Prompt: Item Cc1ccc(Cn2nc(C(=O)N[C@@H]3C(C)(C)[C@@H]4CC[C@@]3(C)C4)cc2-c2ccc(Cl)c(C)c2)cc1 has what recorded Activity?
Completion: 99.8

Prompt: Item CCCOc1cccc2c(C(=O)c3ccc(OC)cc3)cn(CC3CCOCC3)c12 has what recorded Activity?
Completion: 105.4

Prompt: Item COc1ccc(C(=O)c2cn(CCN3CCOCC3)c3ccc(O)cc23)cc1 has what recorded Activity?
Completion: 101.9

Prompt: Item CCCOc1ccc2c(c1)c(C(=O)c1ccc(OC)cc1)cn2CC1CCOCC1 has what recorded Activity?
Completion: 95

Prompt: Item COc1ccc(C(=O)c2cn(CC3CCOCC3)c3c(OCCCCC(=O)O)cccc23)cc1 has what recorded Activity?
Completion: 105.6

----------
# test_target: Cannabinoid receptor 2 (Homo sapiens, UniProt P34972)
# Sequence (P34972 whole entry): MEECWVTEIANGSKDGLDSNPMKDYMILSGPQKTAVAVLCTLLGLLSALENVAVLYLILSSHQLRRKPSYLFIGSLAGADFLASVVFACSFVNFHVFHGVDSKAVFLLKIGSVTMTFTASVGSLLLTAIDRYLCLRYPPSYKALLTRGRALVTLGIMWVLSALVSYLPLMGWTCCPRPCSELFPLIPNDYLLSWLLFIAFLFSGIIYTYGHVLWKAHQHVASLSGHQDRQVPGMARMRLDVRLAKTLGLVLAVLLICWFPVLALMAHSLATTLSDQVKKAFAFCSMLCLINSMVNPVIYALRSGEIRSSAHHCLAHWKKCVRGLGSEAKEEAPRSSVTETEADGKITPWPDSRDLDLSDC
# assay_text: Agonist activity at N-terminal HA-tagged human CB2 receptor expressed in HEK293 cells transfected with YFP-Epac-RLuc assessed as decrease in forskolin-stimulated cAMP level by BRET assay relative to control
# Format: functional, cell-based
The label Satisfied is reserved for Emax strictly under 70%; Not satisfied covers values equal to or above it.

Prompt: Is Emax strictly under 70% for the entry O=C(c1cn(CCN2CCOCC2)c2ccc(O)cc12)C1CCCCC1 ?
Completion: Not satisfied

Prompt: Is Emax strictly under 70% for the entry CCCCCCC(C)(C)c1ccc([C@@H]2C[C@H](O)CC[C@H]2CCCO)c(O)c1 ?
Completion: Satisfied

Prompt: Is Emax strictly under 70% for the entry COc1ccc(C(=O)c2cn(CC3CCOCC3)c3c(OCC(=O)O)cccc23)cc1 ?
Completion: Not satisfied

Prompt: Is Emax strictly under 70% for the entry COc1ccc(C(=O)c2cn(CC3CCOCC3)c3ccc(O)cc23)cc1 ?
Completion: Satisfied

Prompt: Is Emax strictly under 70% for the entry COc1ccc(C(=O)c2cn(CC3CCOCC3)c3ccc(OCC(=O)O)cc23)cc1 ?
Completion: Satisfied

Prompt: Is Emax strictly under 70% for the entry COc1ccc(C(=O)c2cn(CCN3CCOCC3)c3ccc(O)cc23)cc1 ?
Completion: Satisfied

Prompt: Is Emax strictly under 70% for the entry O=C(c1cccc2ccccc12)c1cn(CC2CCOCC2)c2ccc(O)cc12 ?
Completion: Satisfied

Prompt: Is Emax strictly under 70% for the entry O=C(c1cccc2ccccc12)c1cn(CCN2CCOCC2)c2ccc(O)cc12 ?
Completion: Not satisfied

----------
# System: HEK293
# assay_text: Effect on forskolin-stimulated cAMP level in HEK293 cells at 10 uM by BRET assay relative to control
# Format: ADME, cell-based
# run_conditions: human, hek293, 10 µM
Assign Activity to each entry below.
State the value, then name its unit.

Prompt: // map COc1ccc(C(=O)c2cn(CC3CCOCC3)c3c(O)cccc23)cc1 to recorded Activity (system: HEK293)
Completion: 135.3%

Prompt: // map COC(=O)CCCCOc1cccc2c(C(=O)c3ccc(OC)cc3)cn(CC3CCOCC3)c12 to recorded Activity (system: HEK293)
Completion: 160.6%

Prompt: // map O=C(c1cn(CCN2CCOCC2)c2ccc(O)cc12)C1CCCCC1 to recorded Activity (system: HEK293)
Completion: 105.1%

Prompt: // map CCCCCCC(C)(C)c1ccc([C@@H]2C[C@H](O)CC[C@H]2CCCO)c(O)c1 to recorded Activity (system: HEK293)
Completion: 98%

----------
# test_target: UniProt:P21554
# Sequence (P21554 whole entry): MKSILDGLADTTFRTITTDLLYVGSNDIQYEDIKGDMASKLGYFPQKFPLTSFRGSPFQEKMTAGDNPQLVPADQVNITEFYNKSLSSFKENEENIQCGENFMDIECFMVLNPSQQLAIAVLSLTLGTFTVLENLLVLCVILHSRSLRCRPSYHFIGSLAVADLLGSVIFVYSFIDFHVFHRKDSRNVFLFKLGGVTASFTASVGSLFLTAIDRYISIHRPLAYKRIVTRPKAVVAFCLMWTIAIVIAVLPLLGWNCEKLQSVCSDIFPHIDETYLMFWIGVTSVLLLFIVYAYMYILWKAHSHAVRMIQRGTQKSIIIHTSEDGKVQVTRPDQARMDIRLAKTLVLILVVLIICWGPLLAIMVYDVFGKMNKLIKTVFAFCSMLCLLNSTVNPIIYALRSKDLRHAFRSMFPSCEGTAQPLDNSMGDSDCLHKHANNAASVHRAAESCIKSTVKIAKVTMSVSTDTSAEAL
# assay_text: Agonist activity at N-terminal HA-tagged human CB1 receptor expressed in HEK293 cells transfected with YFP-Epac-RLuc assessed as decrease in forskolin-stimulated cAMP level by BRET assay relative to control
# Assay type: functional, cell-based
Param threshold (60%) applies to Emax; output rule met when value >= threshold, rule not met when value < threshold.

Prompt: For this molecule, is measured Emax 60% or higher? O=C(c1cccc2ccccc12)c1cn(CCN2CCOCC2)c2ccc(O)cc12
Completion: rule not met

Prompt: For this molecule, is measured Emax 60% or higher? COc1ccc(C(=O)c2cn(CC3CCOCC3)c3c(OCC(=O)O)cccc23)cc1
Completion: rule met

Prompt: For this molecule, is measured Emax 60% or higher? COc1ccc(C(=O)c2cn(CCN3CCOCC3)c3ccc(O)cc23)cc1
Completion: rule met

Prompt: For this molecule, is measured Emax 60% or higher? COc1ccc(C(=O)c2cn(CC3CCOCC3)c3ccc(O)cc23)cc1
Completion: rule met

Prompt: For this molecule, is measured Emax 60% or higher? O=C(c1cn(CCN2CCOCC2)c2ccc(O)cc12)C1CCCCC1
Completion: rule met

Prompt: For this molecule, is measured Emax 60% or higher? COC(=O)CCCCOc1cccc2c(C(=O)c3ccc(OC)cc3)cn(CC3CCOCC3)c12
Completion: rule met

Data provenance: ChEMBL document CHEMBL4251662
